System: HepG2
method-description: Cytotoxicity against human HepG2 cells assessed as reduction in cell viability measured after 48 hrs by MTS assay
Format: functional, cell-based
assay-setup: HepG2, 48 h
property-measured: pIC50
Entry type: numeric. Quantity: pIC50, the -log10 of concentration in molar units.

Request: If you can, please state the reported pIC50 value of COc1ccc(/C=C(/C#N)c2nc(-c3cc4ccccc4oc3=O)cs2)cc1OC .
Response: 5.54

Request: If you can, please state the reported pIC50 value of COc1ccc(/C=C(/C#N)c2nc(-c3cc4ccccc4oc3=O)cs2)cc1 .
Response: 5.63

Request: If you can, please state the reported pIC50 value of Cc1nc(N2N=C(c3cccs3)CC2c2ccc(C3CC(c4cccs4)=NN3c3nc(C)c(/N=N/c4ccc([N+](=O)[O-])cc4)s3)cc2)sc1/N=N/c1ccc([N+](=O)[O-])cc1 (centres undefined) .
Response: 5.86

Request: If you can, please state the reported pIC50 value of COc1cccc2c1C(=O)c1c(O)c3c(c(O)c1C2=O)C[C@@](O)(C(=O)CO)C[C@@H]3O[C@H]1C[C@H](N)[C@H](O)[C@H](C)O1 [DOXORUBICIN] .
Response: 6.14
